protocol_notes: gradient 5% acetonitrile 3 min, to 50% in 2 min, to 85% in 15 min, held 3 min, 100 µL/min
condition: column: Zorbax Extend-C18 2.1 x 50 mm; eluents: water / acetonitrile, 0.1% formic acid
measure_name: RP-LC retention time (s)

compound	RP-LC retention time, s
CCN1CCN(c2ccc(-c3nc(-c4ccc(OC)cc4)no3)cn2)CC1	696

(A) CC(NC(=O)c1ccc(C#N)cc1)C(=O)N1CCCc2ccccc21 (stereo not drawn)
(B) CN1CCN(c2nnc(SCC(=O)Nc3cccc(C(F)(F)F)c3)s2)CC1
Just curious, which one has the larger RP-LC retention time reading, A or B ? # answer = label of selected item
A
(A: 818 s, B: 560 s)

(I) CCOC(=O)CNC(=O)CSc1ccc2nnc(-c3cccc(F)c3)n2n1
(II) CCC(=O)Nc1ccc(C2(C(=O)N3CCN(c4cccc(C)c4)CC3)CCC2)cc1
Of the pair I and II , name the member with the lesser recorded RP-LC retention time. # answer = label of selected item
I
(I: 625 s, II: 908 s)

(P) O=C(NCc1ccc(-c2noc(-c3cc(F)cc(F)c3)n2)s1)C1CC1
(Q) COc1ccc(N2CCN(C(=O)c3cn4ccc(C)cc4n3)CC2)cc1
Of the pair P and Q , name the member with the lesser recorded RP-LC retention time. # answer = label of selected item
Q
(Q: 615 s, P: 952 s)
